test system: U2OS; assay: Multiplex assay against U2OS; type: toxicity, cell-based; conditions: human, 24 h, 10 µM, compound concentration 10 uM, replicate 2
READOUT NAME: Total Cell Count

{"columns": ["COMPOUND", "READOUT NAME", "VALUE"],
 "data": [
  ["CC[C@H](Nc1ncnc2[nH]cnc12)c1nc2cccc(F)c2c(=O)n1-c1ccccc1", "Total Cell Count", 146],
  ["N#Cc1cccc(C(=O)Nc2cc(-c3ccccc3)nn2-c2ccccc2)c1", "Total Cell Count", 66],
  ["CN(c1cc(C(F)(F)F)nc(OCCC(=O)O)n1)c1cccc2c1CCC2", "Total Cell Count", 79],
  ["CC(C)C[C@H](NC(=O)[C@H](Cc1ccccc1)NC(=O)CNC(=O)CNC(=O)[C@@H](N)Cc1ccc(O)cc1)C(=O)O", "Total Cell Count", 86],
  ["CCCCN(CC)c1nc(C)nc2c1c(C)cn2-c1c(C)cc(C)cc1C.Cl", "Total Cell Count", 74],
  ["Cl.NC[C@@H]1O[C@H](C23CC4CC(CC(C4)C2)C3)Cc2c1ccc(O)c2O", "Total Cell Count", 80],
  ["Oc1cccc(-c2nc(N3CCOCC3)c3oc4ncccc4c3n2)c1", "Total Cell Count", 80],
  ["Cl.Cn1c2c(c3ccc(Cl)c(Cl)c31)C(C#N)C1(CCNCC1)NC2=O (centres undefined)", "Total Cell Count", 164],
  ["C=CC(=O)Nc1cc(-n2c(=O)ccc3cnc4ccc(-c5ccc(NS(C)(=O)=O)cc5)cc4c32)ccc1C", "Total Cell Count", 59],
  ["CCCc1cc(C)[nH]c(=O)c1CNC(=O)c1cc(-c2ccc(N3CCN(C(C)C)CC3)nc2)cc2c1cnn2C(C)C", "Total Cell Count", 60],
  ["Cc1ccc(S(=O)(=O)NC2c3ccccc3Oc3ccccc32)cc1", "Total Cell Count", 84],
  ["CC(C)[C@H](CO)Nc1nc(Nc2cccc(Cl)c2)c2ncn(C(C)C)c2n1", "Total Cell Count", 66],
  ["c1ccc(-c2oc3ncnc(NC[C@@H]4CCCO4)c3c2-c2ccccc2)cc1", "Total Cell Count", 60],
  ["CN1C(=O)[C@@H](NC(=O)c2cc3ccccc3[nH]2)N=C(c2ccccc2)c2ccccc21 [DEVAZEPIDE]", "Total Cell Count", 68],
  ["N#CCNC(=O)c1ccc(-c2ccnc(Nc3ccc(N4CCOCC4)cc3)n2)cc1", "Total Cell Count", 59],
  ["CC(/C=C1\\SC(=S)N(CCCC(=O)Nc2ccc(C(=O)O)c(O)c2)C1=O)=C\\c1ccccc1", "Total Cell Count", 115],
  ["CC[C@@]1(O)C(=O)OCc2c1cc1n(c2=O)Cc2cc3ccccc3nc2-1", "Total Cell Count", 112],
  ["CCCCCNC(=N)N/N=C/c1c[nH]c2ccc(OC)cc12.O=C(O)/C=C\\C(=O)O [TEGASEROD MALEATE]", "Total Cell Count", 70]
]}

---

Measured Population Normal (%) values are reported for all entries that follow.
test system: HEK-293T; test: Multiplex assay against HEK293T; assay type: toxicity, cell-based; conditions: human, 48 h, 10 µM, compound concentration 10 uM, replicate 2
READOUT NAME: Population Normal (%)

{"columns": ["COMPOUND", "OUTPUT UNIT", "VALUE"],
 "data": [
  ["CC(Cc1ccc(O)c(O)c1)C(C)Cc1ccc(O)c(O)c1 (stereo not given) [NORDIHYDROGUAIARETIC ACID]", "%", 95],
  ["N#CCNC(=O)c1ccc(-c2ccnc(Nc3ccc(N4CCOCC4)cc3)n2)cc1", "%", 95],
  ["CCCc1cc(C)[nH]c(=O)c1CNC(=O)c1cc(-c2ccc(N3CCN(C(C)C)CC3)nc2)cc2c1cnn2C(C)C", "%", 72],
  ["Cc1c(Nc2ccc(S(=O)(=O)N3CCN(C)CC3)cc2F)nc2ccc(-c3cnn(C4CC4)c3)cn2c1=O", "%", 80],
  ["Cc1ccc(S(=O)(=O)NC2c3ccccc3Oc3ccccc32)cc1", "%", 97]
]}

---

test system: Fibroblast; assay: Multiplex assay against human fibroblast; assay type: toxicity, cell-based; conditions: 12 h, 1 µM, compound concentration 1 uM, replicate 1
Quick reference: Population Healthy Nuclei (%) of the listed items.
READOUT NAME: Population Healthy Nuclei (%)

{"columns": ["COMPOUND", "READOUT NAME", "VALUE"],
 "data": [
  ["C=CC(=O)Nc1cc(-n2c(=O)ccc3cnc4ccc(-c5ccc(NS(C)(=O)=O)cc5)cc4c32)ccc1C", "Population Healthy Nuclei (%)", 32],
  ["CC[C@H](Nc1ncnc2[nH]cnc12)c1nc2cccc(F)c2c(=O)n1-c1ccccc1 [IDELALISIB]", "Population Healthy Nuclei (%)", 56],
  ["CC(C)C[C@H](NC(=O)[C@H](Cc1ccccc1)NC(=O)CNC(=O)CNC(=O)[C@@H](N)Cc1ccc(O)cc1)C(=O)O [ENKEPHALIN]", "Population Healthy Nuclei (%)", 53],
  ["CCCc1cc(C)[nH]c(=O)c1CNC(=O)c1cc(-c2ccc(N3CCN(C(C)C)CC3)nc2)cc2c1cnn2C(C)C", "Population Healthy Nuclei (%)", 41],
  ["N#Cc1cccc(C(=O)Nc2cc(-c3ccccc3)nn2-c2ccccc2)c1", "Population Healthy Nuclei (%)", 48],
  ["Cc1ccc(S(=O)(=O)NC2c3ccccc3Oc3ccccc32)cc1", "Population Healthy Nuclei (%)", 46],
  ["CCCCN(CC)c1nc(C)nc2c1c(C)cn2-c1c(C)cc(C)cc1C.Cl", "Population Healthy Nuclei (%)", 44],
  ["CCOc1ccn(-c2ccc(F)cc2)c(=O)c1C(=O)Nc1ccc(Oc2ccnc(N)c2Cl)c(F)c1 [BMS-777607]", "Population Healthy Nuclei (%)", 58],
  ["Cc1c(P(=S)(c2ccccc2)c2ccccc2)n2ccccc2[n+]1C/C=C/c1ccccc1.[Br-]", "Population Healthy Nuclei (%)", 43],
  ["CC(Cc1ccc(O)c(O)c1)C(C)Cc1ccc(O)c(O)c1 (stereo not given) [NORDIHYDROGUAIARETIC ACID]", "Population Healthy Nuclei (%)", 50],
  ["CC(C)c1cc(Nc2nc(N3CCC[C@H](N)C3)ncc2C(N)=O)cc(C(C)C)n1", "Population Healthy Nuclei (%)", 36],
  ["CN1C(=O)[C@@H](NC(=O)c2cc3ccccc3[nH]2)N=C(c2ccccc2)c2ccccc21 [DEVAZEPIDE]", "Population Healthy Nuclei (%)", 36],
  ["Cl.NC[C@@H]1O[C@H](C23CC4CC(CC(C4)C2)C3)Cc2c1ccc(O)c2O", "Population Healthy Nuclei (%)", 51],
  ["CN(c1cc(C(F)(F)F)nc(OCCC(=O)O)n1)c1cccc2c1CCC2", "Population Healthy Nuclei (%)", 47],
  ["Cc1c(Nc2ccc(S(=O)(=O)N3CCN(C)CC3)cc2F)nc2ccc(-c3cnn(C4CC4)c3)cn2c1=O", "Population Healthy Nuclei (%)", 57],
  ["CC(/C=C1\\SC(=S)N(CCCC(=O)Nc2ccc(C(=O)O)c(O)c2)C1=O)=C\\c1ccccc1", "Population Healthy Nuclei (%)", 47],
  ["CCCCCNC(=N)N/N=C/c1c[nH]c2ccc(OC)cc12.O=C(O)/C=C\\C(=O)O [TEGASEROD MALEATE]", "Population Healthy Nuclei (%)", 47],
  ["CCOC(=O)CCNc1cc(N2CCc3ccccc3CC2)nc(-c2ccccn2)n1", "Population Healthy Nuclei (%)", 60],
  ["CC(C)[C@H](CO)Nc1nc(Nc2cccc(Cl)c2)c2ncn(C(C)C)c2n1 [PURVALANOLA]", "Population Healthy Nuclei (%)", 39]
]}

---

test system: Fibroblast; assay: Multiplex assay against human fibroblast; type: toxicity, cell-based; settings: 24 h, 1 µM, compound concentration 1 uM, replicate 2
The entries below come with measured Total Cell Count values attached.

{"columns": ["COMPOUND", "TESTED SYSTEM", "Total Cell Count"],
 "data": [
  ["Oc1cccc(-c2nc(N3CCOCC3)c3oc4ncccc4c3n2)c1", "Fibroblast", 73],
  ["CC(C)c1cc(Nc2nc(N3CCC[C@H](N)C3)ncc2C(N)=O)cc(C(C)C)n1", "Fibroblast", 77],
  ["CCCCCNC(=N)N/N=C/c1c[nH]c2ccc(OC)cc12.O=C(O)/C=C\\C(=O)O [TEGASEROD MALEATE]", "Fibroblast", 89],
  ["Cc1c(Nc2ccc(S(=O)(=O)N3CCN(C)CC3)cc2F)nc2ccc(Nc3cnn(C4CC4)c3)cn2c1=O", "Fibroblast", 68],
  ["CCCc1cc(C)[nH]c(=O)c1CNC(=O)c1cc(-c2ccc(N3CCN(C(C)C)CC3)nc2)cc2c1cnn2C(C)C", "Fibroblast", 53],
  ["CS(=O)(=O)N1CCCC(NC(=O)[C@H](CCC2CCCCC2)NC(=O)c2ccc(CNC(=O)c3cnc4ccccn34)cc2)C1 (some centres undefined)", "Fibroblast", "97 [middle of 4 runs]"],
  ["CC[C@@H]1C(=O)N(C)c2cnc(Nc3ccc(C(=O)NC4CCN(C)CC4)cc3OC)nc2N1C1CCCC1", "Fibroblast", 92],
  ["C=CC(=O)Nc1cc(-n2c(=O)ccc3cnc4ccc(-c5ccc(NS(C)(=O)=O)cc5)cc4c32)ccc1C", "Fibroblast", 79],
  ["CCCCN(CC)c1nc(C)nc2c1c(C)cn2-c1c(C)cc(C)cc1C.Cl", "Fibroblast", 116]
]}
